Target: sorbose dehydrogenase (Sinorhizobium meliloti, UniProt Q92YU0)
Sequence (Q92YU0 entry or part of it): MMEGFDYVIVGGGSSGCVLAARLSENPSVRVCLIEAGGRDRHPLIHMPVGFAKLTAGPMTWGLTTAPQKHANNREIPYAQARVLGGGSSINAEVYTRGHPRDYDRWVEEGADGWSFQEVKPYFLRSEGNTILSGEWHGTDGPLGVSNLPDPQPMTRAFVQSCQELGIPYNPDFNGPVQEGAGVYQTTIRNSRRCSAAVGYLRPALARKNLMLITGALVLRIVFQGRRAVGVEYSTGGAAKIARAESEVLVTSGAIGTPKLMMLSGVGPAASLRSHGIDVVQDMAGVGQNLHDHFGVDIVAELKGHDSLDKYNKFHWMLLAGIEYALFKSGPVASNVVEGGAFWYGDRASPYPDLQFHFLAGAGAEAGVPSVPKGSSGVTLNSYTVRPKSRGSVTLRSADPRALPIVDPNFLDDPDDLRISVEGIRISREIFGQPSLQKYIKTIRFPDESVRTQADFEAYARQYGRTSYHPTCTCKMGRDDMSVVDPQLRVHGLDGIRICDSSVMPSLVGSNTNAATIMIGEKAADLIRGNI
Assay: Substrate specificity of sorbose dehydrogenase (relative reactivity, DCIP method)
Assay type: biochemical, Sinorhizobium sp. 97507
Details: substrate final concentration 333 mM; relative to activity of L-sorbose as standard (100)
Method: One mL of a 0.1 M potassium phosphate buffer, pH 7.0, 1.0 mL of 1.0 M L-sorbose, 0.14 mL of 3 mM 2,6-dichlorophenol indophenol (DCIP), 0.2 mL of 3 mM 1-methoxy-5-methylphenazinium methyl sulfate, and 0.61 mL of water were added to a 3 mL quartz cell, and the quartz cell was set to a spectrophotometer equipped with a thermostat cell holder, and incubated at 37° C. for ten minutes. […]
Hi there, I'd appreciate the recorded Relative activity (%) for every entry that follows.
Only the number, expressed in %, is required.

Ask | Retrieve Relative activity (%) measured for CC(C)O [2-propanol] and print it.
Reply | 0.39

Ask | For the compound CCCO [1-propanol] , give its measured Relative activity (%) value.
Reply | 0.75

Ask | Output measured Relative activity (%) for this item: OC[C@@H](O)[C@H](O)[C@@H](O)CO [Xylitol]
Reply | 0.89

Ask | Fill in Relative activity (%) for record OC[C@H]1OC[C@H](O)[C@@H](O)[C@@H]1O [1,5-anhydroglucitol]
Reply | 79.1

Ask | Please supply the value of reported Relative activity (%) for the item CC(C)CO [2-methyl-1-propanol]
Reply | 2.06

---

Target: sorbose dehydrogenase (Sinorhizobium meliloti, UniProt Q92YU0)
Test: Substrate specificity of sorbose dehydrogenase (relative reactivity, DCIP method)
Type: biochemical, Sinorhizobium sp. 97507
Conditions: substrate 333 mM (lactose 167 mM)
readoutKind: Effect of the sorbose dehydrogenase on the substrate (in words)

>>> result("OC[C@H]1O[C@H](O[C@H]2[C@H](O)[C@@H](O)[C@H](O)O[C@@H]2CO)[C@H](O)[C@@H](O)[C@@H]1O")
"little effect"
>>> result("O[C@H]1[C@H](O)[C@@H](O)[C@H](O)[C@@H](O)[C@H]1O")
"little effect"
>>> result("C=CCO")
"weak effect"
>>> result("O=C[C@H](O)[C@H](O)[C@H](O)CO")
"little effect"

Ask | For the molecule O=C[C@H](O)[C@@H](O)[C@H](O)[C@H](O)CO [D-(+)-glucose] , give its reported Effect of the sorbose dehydrogenase on the substrate (in words).
Reply | weak effect

---

Please respond with reported Relative activity (%) for every item in the list.
Molecular target: sorbose dehydrogenase (Sinorhizobium meliloti, UniProt Q92YU0)
Assay: Substrate specificity of sorbose dehydrogenase (relative reactivity, DCIP method)
Type: biochemical, Sinorhizobium sp. 97507
Settings: substrate final concentration 333 mM; […]
Numeric answer only, unit % assumed.

Ask | Give recorded Relative activity (%). O=C[C@H](O)[C@@H](O)[C@H](O)[C@H](O)CO [D-(+)-glucose]
Reply | 1.22

Ask | Indicate the recorded Relative activity (%) value for this compound: OC[C@H]1O[C@H](O[C@H]2[C@H](O)[C@@H](O)[C@H](O)O[C@@H]2CO)[C@H](O)[C@@H](O)[C@@H]1O [Maltose]
Reply | 0

Ask | Output Relative activity (%) of O=C[C@@H](O)[C@@H](O)[C@H](O)[C@H](O)CO [D-(+)-mannose]
Reply | 0.15

Ask | Name the recorded Relative activity (%) of the compound listed here: OCC(O)CO [Glycerol]
Reply | 0

Ask | Please give measured Relative activity (%) of the following entry: O=C[C@H](O)[C@@H](O)[C@@H](O)[C@H](O)CO [D-(+)-galactose]
Reply | 1.69

---

I'd appreciate it if you could supply Relative activity (%) values for the items below.
Target: UniProtKB Q92YU0
Test: Inhibitor test: additive in the reaction solution for the activity measurement
Type: biochemical, Sinorhizobium sp. 97507
Conditions: additive final concentration 1.0 mM; control without additive = 100%

Ask | Please look at this compound and report its Relative activity (%): O=C(O)C(O)C(O)C(=O)O (racemic) [DL-tartaric acid]
Reply | 86%

Ask | Look up and state reported Relative activity (%) for O=C(O)CC(O)C(=O)O (racemic)
Reply | 85%

Ask | Input `N[C@@H]1CONC1=O` , output reported Relative activity (%).
Reply | 90%

Ask | Find the measured Relative activity (%) of `[Cl-].[Cl-].[Zn+2]` and report it.
Reply | 98%

Ask | Give a short answer stating reported Relative activity (%) for `[Cl][Hg][Cl]` .
Reply | 0%

Ask | Assign Relative activity (%) to the following record: `[Ba+2].[Cl-].[Cl-]`
Reply | 80%

Ask | Hello, please tell me recorded Relative activity (%) for this one: `[Cl-].[Li+]`
Reply | 98%

Ask | Item `[Cl][Fe]([Cl])[Cl]` : provide Relative activity (%)
Reply | 89%

Ask | Please look at this compound and report its Relative activity (%): `[Cl][Al]([Cl])[Cl]`
Reply | 109%

Ask | Indicate the recorded Relative activity (%) value for this compound: `NC(N)=O`
Reply | 92%

Ask | Given the compound `[Cl][Cu][Cl]` , write its reported Relative activity (%).
Reply | 0%

Ask | Check the records and state Relative activity (%) for O=C(O)C(O)C(O)C(=O)O (stereo not drawn) [meso-tartaric acid]
Reply | 94%

---

Consider the following compounds; for each one, report its Relative activity (%).
Biological target: sorbose dehydrogenase (Sinorhizobium meliloti, UniProt Q92YU0)
Test: Substrate specificity of sorbose dehydrogenase (relative reactivity, DCIP method)
Format: biochemical, Sinorhizobium sp. 97507
Settings: substrate final concentration 333 mM; […]
State just the number; it will be interpreted in %.

Ask | Please report Relative activity (%) for the following compound: `C=CCO`
Reply | 3.80

Ask | Input O=C(CO)[C@@H](O)[C@H](O)[C@H](O)CO [D-(−)-fructose] , output reported Relative activity (%).
Reply | 0

Ask | Fill in reported Relative activity (%) for this entry: O=C(CO)[C@H](O)[C@@H](O)[C@H](O)CO [D-(−)-sorbose]
Reply | 2.96

---

Target: sorbose dehydrogenase (Sinorhizobium meliloti, UniProt Q92YU0)
Experiment: Inhibitor test: additive in the reaction solution for the activity measurement
Format: biochemical, Sinorhizobium sp. 97507
Conditions: read-out: Relative activity (%)
Label rule, in plain words: activity at 1000 µM of 90% and up is 1 (yes), under 90% is 0 (no).

Ask | Record `O=C(O)CI` ; criterion: activity at 1000 µM no lower than 90%. Met?
Reply | 0 (no)

Ask | In plain terms: is recorded activity at 1000 µM at least 90% for `O=C(O)/C=C/C(=O)O` ?
Reply | 1 (yes)

Ask | Reported activity at 1000 µM at or above 90%? `O=C(O)c1ccccc1`
Reply | 1 (yes)

Ask | Does the compound `O=C(O)/C=C\C(=O)O` have recorded activity at 1000 µM that is 90% or more?
Reply | 0 (no)

Ask | Decide: is the reported value of activity at 1000 µM for `O=C(O)CC(O)(CC(=O)O)C(=O)O` equal to or greater than 90%?
Reply | 0 (no)

---

Biological target: sorbose dehydrogenase (Sinorhizobium meliloti, UniProt Q92YU0)
Experiment: Substrate specificity of sorbose dehydrogenase (relative reactivity, DCIP method)
Format: biochemical, Sinorhizobium sp. 97507
Conditions: substrate 333 mM (lactose 167 mM)
Procedure: One mL of a 0.1 M potassium phosphate buffer, pH 7.0, 1.0 mL of 1.0 M L-sorbose, 0.14 mL of 3 mM 2,6-dichlorophenol indophenol (DCIP), 0.2 mL of 3 mM 1-methoxy-5-methylphenazinium methyl sulfate, and 0.61 mL of water were added to a 3 mL quartz cell, and the quartz cell was set to a spectrophotometer equipped with a thermostat cell holder, and incubated at 37° C. for ten minutes. […]
readoutKind: Effect of the sorbose dehydrogenase on the substrate (in words)

As a guide, the following entries are already answered.
>>> result("CCCO")
"little effect"
>>> result("OC[C@H]1O[C@H](O[C@H]2O[C@H](CO)[C@@H](O)[C@H](O)[C@H]2O)[C@H](O)[C@@H](O)[C@@H]1O")
"little effect"
>>> result("OC[C@@H](O)[C@@H](O)CO")
"little effect"
>>> result("O=C(CO)[C@H](O)[C@@H](O)[C@H](O)CO [D-(−)-sorbose]")
"weak effect"
>>> result("OC[C@@H](O)[C@@H](O)[C@H](O)[C@@H](O)CO")
"little effect"

Ask | Indicate the recorded Effect of the sorbose dehydrogenase on the substrate (in words) value for this compound: O=C[C@H](O)[C@@H](O)[C@@H](O)[C@H](O)CO [D-(+)-galactose]
Reply | weak effect

Ask | Consider the compound `O=C[C@H](O)[C@@H](O)[C@H](O)CO` and give its recorded Effect of the sorbose dehydrogenase on the substrate (in words).
Reply | little effect
